Data provenance is PubChem BioAssay.

Each entry below carries its recorded composite z-score.
# experiment-description: small-molecule binders of probe aNOTCH3, primary screen, biochemical, small-molecule microarray, 635/667 nm fluorescence (AID 1120);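 note: probe is a biotin-tagged antibody raised against NOTCH3 rather than NOTCH3 protein; score merges spot fluorescence near 667 nm with spot signal to noise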
# experimental-parameters: higher = more signal
property-label: composite z-score

>>> reported_measurement("COC(=O)CC=C[C@@H](C)[C@@H](C=NOC(C)CN1CCCc2nc(C)c(C)cc21)NS(=O)(=O)c1ccc(C)cc1 (some centres undefined)")
0.033
>>> reported_measurement("CO[C@H]1COC(=O)[C@H](C)COC(=O)[C@H](C)NC(=O)CC=C[C@H]1C")
-0.131
>>> reported_measurement("COC(=O)[C@@H]1CC[C@H](C)[C@@H](c2ccc(Br)cc2)N1C[C@H](O)CN=[N+]=[N-]")
-0.0219
>>> reported_measurement("COC(=O)[C@H](C)NC(=O)CCC1CC(OC(=O)NCCc2ccc(F)cc2)CC2(CCCC(COC(=O)NCCOc3ccccc3)O2)O1 (some centres undefined)")
-0.029
